As shown below, each of these compounds has a reported pKi value.
# measurement_target: Carbonic anhydrase 1 (Homo sapiens, UniProt P00915)
# Sequence (P00915 whole entry): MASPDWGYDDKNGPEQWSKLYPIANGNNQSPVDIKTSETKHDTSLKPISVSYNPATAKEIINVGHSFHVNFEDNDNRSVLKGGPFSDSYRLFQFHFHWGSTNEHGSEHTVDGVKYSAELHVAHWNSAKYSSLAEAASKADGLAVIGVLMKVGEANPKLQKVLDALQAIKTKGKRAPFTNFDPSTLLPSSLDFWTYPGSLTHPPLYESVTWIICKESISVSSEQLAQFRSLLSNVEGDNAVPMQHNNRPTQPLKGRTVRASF
# assay: Inhibition of recombinant human carbonic anhydrase 1 assessed as reduction in CO2 hydration pretreated for 15 mins followed by CO2 addition measured for 10 to 100 sec by Line-Weaver Burk plot analysis
pKi: −log10 of the molar value.

- compound: "CC(=O)NS(=O)(=O)c1ccc(C2=NN(C(C)=O)C(c3ccc(C(F)(F)F)cc3)O2)cc1 (centres undefined)"
  pKi: "< 5.00"
- compound: "CC(=O)NS(=O)(=O)c1ccc(C2=NN(C(C)=O)C(c3cccc([N+](=O)[O-])c3)O2)cc1 (centres undefined)"
  pKi: "< 5.00"
- compound: "COc1ccc(C2OC(c3ccc(S(=O)(=O)NC(C)=O)cc3)=NN2C(C)=O)cc1 (centres undefined)"
  pKi: "< 5.00"
- compound: "CC(=O)NS(=O)(=O)c1ccc(C2=NN(C(C)=O)C(c3ccccc3[N+](=O)[O-])O2)cc1 (centres undefined)"
  pKi: "< 5.00"

---

# measurement_target: Carbonic anhydrase 9 (Homo sapiens, UniProt Q16790)
# assay: Inhibition of recombinant human carbonic anhydrase 9 assessed as reduction in CO2 hydration pretreated for 15 mins followed by CO2 addition measured for 10 to 100 sec by Line-Weaver Burk plot analysis
measured_parameter: log10 of Ki (log10 of the value in µM)

- compound: "CC(=O)NS(=O)(=O)c1ccc(C2=NN(C(C)=O)C(c3ccc(F)cc3F)O2)cc1 (stereo unspecified)"
  recorded_number: -0.43
- compound: "COc1ccccc1C1OC(c2ccc(S(=O)(=O)NC(C)=O)cc2)=NN1C(C)=O (stereo unspecified)"
  recorded_number: -0.42
- compound: "COc1ccc(C2OC(c3ccc(S(=O)(=O)NC(C)=O)cc3)=NN2C(C)=O)cc1 (stereo unspecified)"
  recorded_number: -0.84
- compound: "COc1cccc(C2OC(c3ccc(S(=O)(=O)NC(C)=O)cc3)=NN2C(C)=O)c1 (stereo unspecified)"
  recorded_number: -0.37
- compound: "CC(=O)NS(=O)(=O)c1ccc(C2=NN(C(C)=O)C(c3ccc(Cl)cc3Cl)O2)cc1 (single isomer, unassigned; (-))"
  recorded_number: -1.62
- compound: "CC(=O)NS(=O)(=O)c1ccc(C2=NN(C(C)=O)C(c3ccc(Cl)cc3Cl)O2)cc1 (single isomer, unassigned; (+))"
  recorded_number: -1.57

---

# measurement_target: Carbonic anhydrase 9 (Homo sapiens, UniProt Q16790)
# assay: Inhibition of recombinant human carbonic anhydrase 9 assessed as reduction in CO2 hydration pretreated for 15 mins followed by CO2 addition measured for 10 to 100 sec by Line-Weaver Burk plot analysis
In this section we review reported Ki values for a set of compounds.
measured_parameter: Ki (nM)

- compound: "CC(=O)NS(=O)(=O)c1ccc(C2=NN(C(C)=O)C(c3ccccc3C)O2)cc1 (centres undefined)"
  measurement_target: "Carbonic anhydrase 9 (Homo sapiens, UniProt Q16790)"
  value_unit: "nM"
  recorded_number: 489
- compound: "CC(=O)NS(=O)(=O)c1ccc(C2=NN(C(C)=O)C(c3ccccc3[N+](=O)[O-])O2)cc1 (centres undefined)"
  measurement_target: "Carbonic anhydrase 9 (Homo sapiens, UniProt Q16790)"
  value_unit: "nM"
  recorded_number: 159
- compound: "CC(=O)NS(=O)(=O)c1ccc(C2=NN(C(C)=O)C(c3ccc(C(F)(F)F)cc3)O2)cc1 (centres undefined)"
  measurement_target: "Carbonic anhydrase 9 (Homo sapiens, UniProt Q16790)"
  value_unit: "nM"
  recorded_number: 468
- compound: "CC(=O)NS(=O)(=O)c1ccc(C2=NN(C(C)=O)C(c3ccc(C)cc3)O2)cc1 (centres undefined)"
  measurement_target: "Carbonic anhydrase 9 (Homo sapiens, UniProt Q16790)"
  value_unit: "nM"
  recorded_number: 502
- compound: "CC(=O)NS(=O)(=O)c1ccc(C2=NN(C(C)=O)C(c3ccc(Cl)cc3Cl)O2)cc1 (racemic)"
  measurement_target: "Carbonic anhydrase 9 (Homo sapiens, UniProt Q16790)"
  value_unit: "nM"
  recorded_number: 25
- compound: "CC(=O)NS(=O)(=O)c1ccc(C2=NN(C(C)=O)C(c3ccc(Cl)cc3)O2)cc1 (centres undefined)"
  measurement_target: "Carbonic anhydrase 9 (Homo sapiens, UniProt Q16790)"
  value_unit: "nM"
  recorded_number: 502
- compound: "CC(=O)NS(=O)(=O)c1ccc(C2=NN(C(C)=O)C(c3ccc([N+](=O)[O-])cc3)O2)cc1 (centres undefined)"
  measurement_target: "Carbonic anhydrase 9 (Homo sapiens, UniProt Q16790)"
  value_unit: "nM"
  recorded_number: 33.1
- compound: "CC(=O)NS(=O)(=O)c1ccc(C2=NN(C(C)=O)C(c3ccc(F)cc3)O2)cc1 (centres undefined)"
  measurement_target: "Carbonic anhydrase 9 (Homo sapiens, UniProt Q16790)"
  value_unit: "nM"
  recorded_number: 43.6
- compound: "CC(=O)NS(=O)(=O)c1ccc(C2=NN(C(C)=O)C(c3cccc([N+](=O)[O-])c3)O2)cc1 (centres undefined)"
  measurement_target: "Carbonic anhydrase 9 (Homo sapiens, UniProt Q16790)"
  value_unit: "nM"
  recorded_number: 44.3

Recorded values, source ChEMBL document CHEMBL4118091.
